Can you tell me Potency for the items I'm about to list?
target: Cruzipain (Trypanosoma cruzi) (UniProt P25779); assay: Confirmation qHTS Assay for Inhibitors of Cruzain; details: purified cruzain, Z-FR-AMC fluorescence, 0.01% Triton; note: nearly all actives have a fitted effect of over 40% in size; note: potency is the fitted concentration of half-maximal effect
Sequence (P25779 123-467 limits assumed): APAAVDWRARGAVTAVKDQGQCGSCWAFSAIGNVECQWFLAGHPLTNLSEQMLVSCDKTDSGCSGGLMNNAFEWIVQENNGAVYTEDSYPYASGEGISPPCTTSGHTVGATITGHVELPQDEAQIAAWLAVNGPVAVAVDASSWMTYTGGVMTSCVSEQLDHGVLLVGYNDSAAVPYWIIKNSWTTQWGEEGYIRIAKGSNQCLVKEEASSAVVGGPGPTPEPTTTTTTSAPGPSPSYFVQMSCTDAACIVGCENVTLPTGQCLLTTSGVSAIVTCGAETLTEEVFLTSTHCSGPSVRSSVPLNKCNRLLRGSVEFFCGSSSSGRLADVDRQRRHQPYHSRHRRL
Results filed as inconclusive are left out. Active and inactive are the calls of the source. Calls come from the whole dose curve; as a rule, active = well fitted inhibition curve with a large enough effect; inconclusive = small, poorly fitted or top-dose-only effect; inactive = no such curve, though single readings can be large or run the other way.

These recorded examples may help you get a feel for the data.
Quick one: Potency for `CCNc1nc(C#N)nc(N2CCCCC2)n1` ? 5.01 µM (active)

Quick one: Potency for CN(C)c1ccc(C(=O)NCC(=O)OC(C(=O)Nc2cc(C(F)(F)F)ccc2Cl)c2ccccc2)cc1 (stereo not given) ? 14.1 µM (active)

Quick one: Potency for `O=C(COC(=O)CNC(=O)c1ccccc1)Nc1ccccc1Cl` ? 11.2 µM (active)

Quick one: Potency for `O=C(COC(=O)CNC(=O)C1CCCCC1)Nc1ccccc1Cl` ? 3.98 µM (active)

Quick one: Potency for O=C(CNC(=O)C1CCCCCC1)OC(C(=O)Nc1cc(C(F)(F)F)ccc1Cl)c1ccccc1 (stereo not given) ? 7.08 µM (active)

Quick one: Potency for `C/C(CC(=O)Nc1cc(Cl)ccc1Cl)=N\NC(N)=S` ? 1.12 µM (active)

Could you tell me Potency for each of these compounds? They are listed below.
1. Cc1ccc(C(=O)NCC(=O)OC(C(=O)Nc2cc(C(F)(F)F)ccc2Cl)c2ccccc2)cc1 (stereo not given)
2. CC/C=C1/N=C2C(=O)N(C)C(=O)N=C2N(C)N1
3. Cc1ccccc1Nc1nc(C#N)nc(NC2CCCC2)n1
4. Cc1ccc(C)c(OCCn2c(CCNC(=O)C3CCCCC3)nc3ccccc32)c1
5. N#Cc1nc(NCCCO)nc(Nc2ccccc2)n1

1: 7.94 µM (active); 2: 0.631 µM (active); 3: 0.708 µM (active); 4: 0.0708 µM (active); 5: 2.24 µM (active)

###

target: Cruzipain (Trypanosoma cruzi) (UniProt P25779); test: Confirmation qHTS Assay for Inhibitors of Cruzain; conditions: purified cruzain, Z-FR-AMC fluorescence, 0.01% Triton; note: nearly all actives have a fitted effect of over 40% in size; note: potency is the fitted concentration of half-maximal effect
Records with an inconclusive call do not appear. The source made the active and inactive calls. Calls follow the shape of the dose curve; as a rule, active = well fitted inhibition curve with a large enough effect; inconclusive = small, poorly fitted or top-dose-only effect; inactive = no such curve, though single readings can be large or run the other way.
Can you tell me Potency for the items I'm about to list?

These recorded examples may help you get a feel for the data.
Quick one: Potency for O=C(CNC(=O)c1ccc(Cl)cc1Cl)OC(C(=O)Nc1cc(C(F)(F)F)ccc1Cl)c1ccccc1 (stereo unspecified) ? 7.08 µM (active)

Quick one: Potency for `O=C(NCCO)c1ccc2nc(-c3ccco3)c(-c3ccco3)nc2c1` ? 14.1 µM (active)

Quick one: Potency for `O=C(CNC(=O)c1ccccc1)OCC(=O)c1ccccc1` ? 15.8 µM (active)

Quick one: Potency for `CC1=CC(=NOC(=O)/C=C/c2ccccc2)C=C(C)C1=O` ? 3.98 µM (active)

Could you tell me Potency for each of these molecules? They are listed below.
1. Cn1nc(-c2cccnc2)nc2c(=O)n(C)c(=O)nc1-2
2. Cc1ccc(C(=O)C(OC(=O)CNC(=O)COc2ccccc2C)c2ccccc2)cc1 (stereo unspecified)
3. O=C(NCCc1nc2ccccc2n1CCCCOc1ccccc1)C1CCCCC1
4. N#Cc1nc(Nc2cccc(F)c2)nc(NC2CCCC2)n1
5. O=C(Cc1ccccc1)NCC(=O)OCC(=O)c1cccc2ccccc12
6. O=C(CNC(=O)C1CCCC1)OC(C(=O)Nc1cc(C(F)(F)F)ccc1Cl)c1ccccc1 (stereo unspecified)
7. O=C(COC(=O)CNC(=O)C1CCCCC1)Nc1ccc2ccccc2c1

["1.12 µM (active)", "3.16 µM (active)", "0.562 µM (active)", "0.0794 µM (active)", "25.1 µM (active)", "7.94 µM (active)", "12.6 µM (active)"]

###

molecular target: Cruzipain (Trypanosoma cruzi); assay: Confirmation qHTS Assay for Inhibitors of Cruzain; details: purified cruzain, Z-FR-AMC fluorescence, 0.01% Triton; note: nearly all actives have a fitted effect of over 40% in size;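 for activity change, negative = inhibition: plate controls were uninhibited enzyme control for no effect and buffer wells lacking enzyme for full effect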
Records with an inconclusive call do not appear.
Metric: activity change, negative = inhibition (%)
One number for each entry, in %.

These recorded examples may help you get a feel for the data.
Kindly state the measured activity change, negative = inhibition obtained for `Cc1ccc2[nH]c(=O)c(CN(CCO)Cc3nnnn3Cc3ccccc3)cc2c1` with Cruzipain (Trypanosoma cruzi). -1.03

Kindly state the measured activity change, negative = inhibition obtained for `CCN(Cc1ccccc1)c1nc2c(S(=O)(=O)c3ccccc3)nnn2c2ccc(Cl)cc12` with Cruzipain (Trypanosoma cruzi). -6.48

Kindly state the measured activity change, negative = inhibition obtained for Cc1ccccc1OCC(=O)NCC(C)NC(=O)COc1ccccc1C (configuration not stated) with Cruzipain (Trypanosoma cruzi). 36.5

Kindly state the measured activity change, negative = inhibition obtained for `Cc1ccc2cc(CN(Cc3ccco3)Cc3nnnn3Cc3ccco3)c(=O)[nH]c2c1` with Cruzipain (Trypanosoma cruzi). -10.1

Kindly state the measured activity change, negative = inhibition obtained for `O=C(Nc1nc(-c2ccc(S(=O)(=O)N3CCCCCC3)cc2)cs1)c1cccs1` with Cruzipain (Trypanosoma cruzi). -3.12

Could you tell me activity change, negative = inhibition for each of these compounds? They are listed below.
1. NC(N)=NCCC[C@H](NC(=O)CNC(=O)c1ccccc1)C(=O)Nc1cc(C(F)(F)F)ccc1Cl
2. NNC(=O)Cn1c(SCc2ccccc2)nc2ccccc21
3. N=c1c(C(=O)NCc2ccc(F)cc2)cc2c(=O)n3ccccc3nc2n1CC1CCCO1 (configuration not stated)
4. CN(C)CCCNS(=O)(=O)c1ccc(N2CCC(c3ccc(Cl)cc3)=N2)cc1
5. C=Cn1ccnc1P(=S)(c1ccc2c(c1)c1ccccc1n2CC)c1nccn1C=C
6. CC(C)(C)OC(=O)NCc1nnc(-c2nc3ccccc3[nH]2)o1
7. CCCCC(O)C(=O)Nc1cc(C(F)(F)F)ccc1Cl (configuration not stated)

1: -8.36; 2: 3.64; 3: -76.7; 4: -28.4; 5: -8.46; 6: -4.26; 7: -16.9

###

molecular target: Cruzipain (Trypanosoma cruzi); experiment: Confirmation qHTS Assay for Inhibitors of Cruzain; conditions: purified cruzain, Z-FR-AMC fluorescence, 0.01% Triton; note: nearly all actives have a fitted effect of over 40% in size;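 for activity change, negative = inhibition: plate controls were uninhibited enzyme control for no effect and buffer wells lacking enzyme for full effect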
Records with an inconclusive call do not appear.
Metric: activity change, negative = inhibition (%)
Numbers only, in %.

These recorded examples may help you get a feel for the data.
Quick one: activity change, negative = inhibition for `NC(=S)n1[nH]c(-c2ccc([N+](=O)[O-])cc2)c(N=Nc2ccc(O)cc2)c1=O` ? -8

Quick one: activity change, negative = inhibition for `c1ccc(CNCc2nnc(-c3cc4ccccc4[nH]3)s2)cc1` ? -7.37

Quick one: activity change, negative = inhibition for `c1ccc2cc3c(NCCN4CCOCC4)ccnc3cc2c1` ? -21.6

Quick one: activity change, negative = inhibition for `COc1cccc(C(=O)NC2CCN(C#N)CC2)c1` ? -6.95

Quick one: activity change, negative = inhibition for `Cc1ccc(COc2ccc3oc(-c4ccccc4)c(C(=O)O)c3c2)cc1` ? -34.5

Quick one: activity change, negative = inhibition for `Cc1nc2cc(-c3ccccc3)nn2c(C)c1CCC(=O)N1CCN(c2ccccc2)CC1` ? -13

Could you tell me activity change, negative = inhibition for each of these molecules? They are listed below.
1. CN(C)c1ccc(-c2nn3c(-c4cc(-c5ccccc5)n[nH]4)nnc3s2)cc1
2. CCOc1ccc(CN2C(=O)c3ccccc3Sc3ccc(C(=O)NCc4ccc5c(c4)OCO5)cc32)cc1
3. Cc1ccc(C)c(CN2C(=O)c3ccccc3Sc3ccc(C(=O)NCc4ccc5c(c4)OCO5)cc32)c1

[-5.13, 6.89, -8.53]

Could you tell me activity change, negative = inhibition for each of these molecules? They are listed below.
1. Clc1ccc(-c2nn3c(-c4cc(-c5ccccc5)n[nH]4)nnc3s2)cc1
2. COc1cc(-c2nn3c(-c4cc(-c5ccccc5)n[nH]4)nnc3s2)cc(OC)c1OC
3. COc1ccccc1CCNC(=O)CNC(=O)c1ccc2ccccc2c1
4. CN1CCN(c2ncc3ncc(=O)n(-c4ccccc4)c3n2)CC1
5. CC1CCCN(c2ccc(C(=O)OCC(=O)N3c4ccccc4Sc4ccccc43)cc2[N+](=O)[O-])C1 (stereo unspecified)
6. Cc1cccc2cc(CN(Cc3ccccc3)Cc3nnnn3Cc3ccccc3)c(=O)[nH]c12
7. COc1ccc2cc3cc(C(=O)NCCCN4CCOCC4)oc3nc2c1

[-13.4, -7.01, -7.19, -20, -7.68, -11.7, -114]

Could you tell me activity change, negative = inhibition for each of these molecules? They are listed below.
1. O=C(Cc1nnc(-c2cc3ccccc3[nH]2)o1)Nc1cc(C(F)(F)F)ccc1Cl
2. N#Cc1c(NC(=O)CSc2ncnc3c2cnn3-c2ccccc2Cl)sc2c1CCCC2
3. O=c1oc2ccccc2cc1-c1csc(Cc2nc(-c3ccc(Br)cc3)cs2)n1
4. O=C(Cn1c(=O)oc2cc(S(=O)(=O)N3CCCCCC3)ccc21)NC1CCCCCCC1
5. CC(C)(C)OC(=O)CC(=O)NNC(=O)c1cc2ccccc2[nH]1

[-3.28, -1.46, 1.72, -3.87, -2.89]

###

Can you tell me activity change, negative = inhibition for the items I'm about to list?
Molecular target: Cruzipain (Trypanosoma cruzi) (UniProt P25779)
Assay: Confirmation qHTS Assay for Inhibitors of Cruzain; note: nearly all actives have a fitted effect of over 40% in size;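 for activity change, negative = inhibition: plate controls were uninhibited enzyme control for no effect and buffer wells lacking enzyme for full effect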
Conditions: purified cruzain, Z-FR-AMC fluorescence, 0.01% Triton
Method: Cruzain is a cysteine protease from the tropical parasite Trypanosoma cruzi. This assay protocol is a follow-up and confirmation of related AID 1478 (qHTS Assay for Promiscuous and Specific Inhibitors of Cruzain -- with detergent). Cruzain was assayed by the use of fluorogenic coumarin-based substrate Z-FR-AMC: proteolytic cleavage releases AMC, whose fluorescence is measured at 360 nm excitation and 450 nm emission. Purified cruzain was supplied by the labs of Prof. […]
Results filed as inconclusive are left out. Activity calls are given as the source filed them. The call rests on the fitted dose curve; in most records, active means well fitted inhibition curve with a large enough effect; inconclusive means small, poorly fitted or top-dose-only effect; inactive means no such curve, though single readings can be large or run the other way.

These recorded examples may help you get a feel for the data.
Quick one: activity change, negative = inhibition for `C=Cc1nc(Nc2cc(F)cc(F)c2)nc(NC2CCCC2)n1` ? -5.68% (inactive)

Quick one: activity change, negative = inhibition for `COc1ccc(N=Cc2nc(-c3ccccc3)oc2OC(=O)c2ccccc2)cc1` ? -22% (inactive)

Quick one: activity change, negative = inhibition for `COC(=O)Cn1c(=NC(=O)c2ccc(Cl)s2)sc2cc(C)ccc21` ? -20% (inactive)

Quick one: activity change, negative = inhibition for `CCNC(=O)c1ccc2nc(-c3ccccc3)c(-c3ccccc3)nc2c1` ? -14.3% (inactive)

Could you tell me activity change, negative = inhibition for each of these molecules? They are listed below.
1. O=C(NC(=S)Nc1nc(-c2cccc3ccccc23)cs1)c1cc2ccccc2o1
2. COC(=O)CCC(C)C1CCC2C3CC[C@H]4CC(O)CC[C@@]4(C)C3CC(O)[C@]12C (some centres not stated)
3. O=C(Cc1nnc(-c2nc3ccccc3[nH]2)o1)Nc1cc(C(F)(F)F)ccc1Cl
4. O=C(Cn1cc(CNC(=O)C2CCCCC2)nn1)Nc1cc(C(F)(F)F)ccc1Cl
5. Cc1ccc(CN(Cc2cc3cc4c(cc3[nH]c2=O)OCCO4)Cc2nnnn2Cc2ccco2)cc1
6. Cc1ccc(OCCCn2c(CCCNC(=O)C3CCCCC3)nc3ccccc32)cc1
7. Cc1ccc(S(=O)(=O)NCC(=O)OCC(=O)Nc2ncc(Cl)cc2Cl)cc1

-1.65% (inactive)
-8.27% (inactive)
-0.284% (inactive)
0.597% (inactive)
-25.4% (inactive)
-20.3% (inactive)
-50.6% (inactive)

Could you tell me activity change, negative = inhibition for each of these molecules? They are listed below.
1. O=C(Nc1ccc(N2CCCC2)cc1)c1ccc(Br)o1
2. COc1ccccc1CCNC(=O)CNC(=O)Cc1cccc2ccccc12
3. N#Cc1nc(-c2cccs2)oc1N1CCOCC1
4. Cc1ccccc1OCC(=O)NCC(=O)OCc1ccc2ccccc2c1
5. CCSc1nnc(NC(=O)c2ccc(Br)s2)s1
6. Cc1ccccc1OCC(=O)NCC(=O)OCc1cccc2ccccc12
7. CC(C)(C)OC(=O)Cc1nnc(-c2nc3ccccc3[nH]2)o1

1. -25% (inactive)
2. 5.36% (inactive)
3. -30.8% (inactive)
4. -17.8% (inactive)
5. -4.82% (inactive)
6. -2.79% (inactive)
7. -0.371% (inactive)

Could you tell me activity change, negative = inhibition for each of these molecules? They are listed below.
1. CCOC(=O)c1ccc(N2CSC3=C(C#N)C(c4cccs4)CC(=O)N3C2)cc1 (configuration not stated)
2. c1ccc(CN(Cc2ccccc2)Cc2nnc(-c3cc4ccccc4[nH]3)s2)cc1
3. COc1ccc(S(=O)(=O)NC2CCN(C#N)CC2)cc1
4. N#CN1CCC(N[S+](=O)([O-])c2cccc(F)c2)CC1

-9.35% (inactive)
-2.53% (inactive)
-4.94% (inactive)
-1.96% (inactive)
